Tested on: HL-60(TB) leukemia
protocol_description: NCI-60 one-dose screen, 48 h
condition_summary: 10 µM unless noted
The panel holds about 83,000 compounds, 20% with a hit somewhere; the sample as a whole holds those more often. Activity calls are given as the source filed them. The calls were made as follows: active = growth percent below 10; inactive = the rest.
Outcome (select one): active, inactive

Worked cases, answers included:
1. N#Cc1ccc(N2Cc3cc(Cl)ccc3OC3=C2C(=O)N(Cc2ccccc2)C3=O)cc1 : active
2. Brc1cnc2[nH]cc(-c3nnc(-c4ccccc4)o3)c2c1 : inactive
3. O=C(O)CCC(NC(=O)OCc1ccccc1)C(=O)O (stereo unspecified) : inactive
4. Cc1ccc2c(c1)C(C)Cc1c(Cl)ncnc1N2C (stereo unspecified) : inactive
5. CN1CCN(c2nc(Nc3ccc(O)cc3)nc3ccccc23)CC1 : inactive

query: In this assay, the call recorded for Nc1ncnc2c1C(c1ccc(Br)cc1)c1sc3c(F)cccc3c1O2 (stereo unspecified) was what?
result: inactive

query: Then what about the compound O=C(CC12CC3CC(CC(C3)C1)C2)NCCOCCOCCOCCNC(=O)c1cc2c(o1)C(=O)c1ccccc1C2=O ?
result: active

query: Try the compound COc1ccc(C2(Cl)c3ccccc3N(c3ccccc3)c3ccccc32)cc1
result: active

query: // query: O=C(O)C1[O][Sb][O]C1C(=O)O (stereo unspecified)
result: inactive

query: Please answer likewise for COc1cccc(-c2nn(-c3ccccc3)cc2-c2ccnc(NCCNC(=O)c3ccccc3)c2)c1
result: inactive

query: Cool, now COCCNc1ccc2c3c(cccc13)C(=O)N(CCN(C)C)C2=O
result: active

query: Another compound to look at: COc1ccc(-c2nn(-c3cccc(NC(=O)Nc4cc(C(F)(F)F)cc(C(F)(F)F)c4)c3)cc2-c2ccncc2)cc1Cl
result: active

query: Then O=C1CCC(C(=O)N/N=C/c2cc(F)ccc2F)N1 (stereo unspecified) ?
result: inactive

* * *

Test system: OVCAR-3 ovarian
protocol_description: NCI-60 one-dose screen, 48 h (100 = growth as untreated, 0 = no growth, -100 = all killed)
condition_summary: 10 µM unless noted
Compounds without any hit were thinned out: in the full panel of roughly 83,000, 20% have a hit.
# Lookup of reported growth keyed by entry
Return type: number; implicit unit %.

1. c1ccc2nc(OCCN3CC3)ccc2c1 : 74.3
2. CC(=O)O[C@H]1C[C@H](O[C@H]2[C@@H](O)C[C@H](O[C@H]3[C@@H](O)C[C@H](O[C@H]4CC[C@@]5(C)C(CCC6C5C[C@@H](O)[C@]5(C)[C@@H](C7=CC(=O)OC7)CC[C@]65O)C4)O[C@@H]3C)O[C@@H]2C)O[C@H](C)[C@H]1O[C@@H]1O[C@H](CO)[C@@H](O)[C@H](O)[C@H]1O (stereo partly specified) : -100
3. Oc1c(Br)cc(Br)cc1Br.[Cu+2] : 109
4. CNC(=O)Oc1cccc(N(C)C)c1 : 110

query: Look up growth: COC(C)(C)CCC[C@H](C)C/C=C/C(C)=C/C(=O)OC(C)C
result: 111

query: Repeat with O=C(CCc1ccco1)NC1CCN(CC2(c3ccc(Cl)cc3)CCC2)CC1
result: 13.9

query: And then O=C(CI)Nc1ccc(Br)cc1 , what is it?
result: -78.7

* * *

Tested on: CAKI-1 renal
protocol_description: NCI-60 one-dose screen, 48 h
condition_summary: 10 µM unless noted
This is part of a sample that, as a whole, favours compounds with a hit. Of some 83,000 tested, about 20% had one in any assay. Activity calls are given as the source filed them. How the source made its calls: active means growth percent below 10; inactive means the rest.
Answer with one of the outcomes given here: y (active), n (inactive)

1) CN1CC2CCC(C1)C2=O : n

query: Which outcome did this test record for the compound CN(C)P1(N(C)C)=NP(N(C)C)(N(C)C)=NP(N(C)C)(N(C)C)=N1 ?
result: n

query: Record: CC(C)Nc1ccc(Nc2ccccc2)cc1
result: n

query: Same read-out for CC(=O)[O][Hg][c]1nc2c(c(=O)n(C)c(=O)n2C)n1C ?
result: n

query: Now the compound CSc1ccccc1NP1(=O)OCC(C)([N+](=O)[O-])CO1 (stereo not drawn)
result: n

query: Then Cc1ccc2oc(=O)c3c(c2c1)OC(N)=C(C#N)C3c1ccco1 (stereo not drawn) ?
result: n

query: Proceed to O=S(=O)(F)c1ncnc2nc[nH]c12
result: n

* * *

Test system: UO-31 renal
protocol_description: NCI-60 one-dose screen, 48 h
condition_summary: 10 µM unless noted
This is part of a sample that, as a whole, favours compounds with a hit. Of some 83,000 tested, about 20% had one in any assay. Active and inactive are the calls of the source. The calls were made as follows: active = growth percent below 10; inactive = the rest.
Output constraint: value belongs to True (active), False (inactive)

1. O1[As]2O[As]3O[As]1O[As](O2)O3 : True
2. CO[C@@H]([CH2][Hg][S]C#N)[C@@H]([CH2][Hg][S]C#N)OC : False
3. CC(C)CCC1(CCO)C(=O)NC(=S)NC1=O : False
4. CNC(=O)Oc1cccc(N(C)C)c1 : False
5. CN1CC2CCC(C1)C2=O : False

query: Outcome? OB([O][Hg][c]1ccccc1)[O][Hg][c]1ccccc1
result: True

query: Now the compound CSc1ccccc1NP1(=O)OCC(C)([N+](=O)[O-])CO1 (configuration not stated)
result: False

query: Same for Cn1cnnc1[S-].[Au+].c1ccc([PH+](c2ccccc2)c2ccccc2)cc1
result: False

query: Also NC(=O)SCC(=O)Nc1ccc([As](=O)(O)O)cc1 , if possible.
result: False

* * *

Tested on: M14 melanoma
protocol_description: NCI-60 one-dose screen, 48 h (100 = growth as untreated, 0 = no growth, -100 = all killed)
condition_summary: 10 µM unless noted
The panel holds about 83,000 compounds, 20% with a hit somewhere; the sample as a whole holds those more often.
Criterion: growth strictly less than 90%. Met: yes. Not met: no.

Before answering, review these 8 worked examples.
1. COc1ccccc1N1CCN(CCc2c[nH]c3cc4c(cc23)OCO4)CC1 : yes
2. O=S(=O)(c1ccc(Cl)cc1)C(Cl)(Cl)Cl : yes
3. CCOCC1(CCc2ccccc2)C(=O)NC(=S)NC1=O : no
4. C/C(=C\C(=O)O[C@H]1[C@@H]2[C@H](C)CC[C@H]2[C@]2(C)O[C@@]1(C1CCCCC1)C[C@H]2OC(=O)CO)c1ccccc1 : yes
5. C[C@]12CCC(=O)CC1CC[C@@H]1C2CC[C@@]2(C)C1CC[C@@H]2OC(=O)CC[Se][Se]CCC(=O)O[C@H]1CCC2[C@@H]3CCC4CC(=O)CC[C@]4(C)C3CC[C@@]21C (stereo not given in full) : yes
6. O=[N+]([O-])c1ccccc1N1CCNCC1 : no
7. O=S(=O)(F)c1ncnc2nc[nH]c12 : no
8. C1CNC2CCCC2C1 (stereo not given) : no

Please turn your attention to the following entry.
query: Below 90% on growth? Entry CC1(C)N=C(N)N=C(N)N1c1ccc(OCCCCNC(=O)c2ccc(S(=O)(=O)F)cc2)c(Cl)c1
result: yes

* * *

Test system: HL-60(TB) leukemia
protocol_description: NCI-60 one-dose screen, 48 h
condition_summary: 10 µM unless noted
About 83,000 compounds went through this panel and 20% of them were active in at least one assay; those are over-represented in the sample as a whole. Activity calls are given as the source filed them. The calls were made as follows: active = growth percent below 10; inactive = the rest.
Thanks in advance; please answer with one of these: Yes for active, No for inactive

1) COc1ccc(C(C)=O)c(OC)c1 : No
2) Cc1cc2c(C(=O)NCC#N)cccc2n1-c1nc2c(c(NCc3ccccc3)n1)CCCC2 : Yes
3) C=C1C(=O)O[C@H]2[C@H]1CC/C(COC(=O)c1cc3ccccc3s1)=C\CC[C@@]1(C)O[C@@H]21 : Yes
4) C/C(=C\c1ccc2ccccc2c1)[N+](=O)[O-] : Yes

Consider now this further compound.
query: # lookup: test call for Cc1cc2ccccc2c[n+]1CC(=O)c1ccc(-c2ccccc2)cc1
result: No

* * *

Tested on: HL-60(TB) leukemia
protocol_description: NCI-60 one-dose screen, 48 h (100 = growth as untreated, 0 = no growth, -100 = all killed)
condition_summary: 10 µM unless noted
Method: Growth inhibition of the HL-60(TB) human tumor cell line is measured as a screen for anti-cancer activity. Cells are grown in 96 well plates and exposed to the test compound for 48 hours. Compounds are tested at a single concentration, which is 10^-5 M for most compounds. The reported endpoint is percent growth (GI% or GIPRCNT), where numbers from 0 - 100% represent growth inhibition, and numbers from -100% - 0 represent cell death. For example, a value of 40 represents 60% growth inhibition. […]
Compounds without any hit were thinned out: in the full panel of roughly 83,000, 20% have a hit.
Returns: string. Value is 1 if measured growth is below 70%, and -1 if it is greater than or equal to it.

Past entries and their recorded results:
1. O=C(Nc1cccc(C(F)(F)F)c1)Oc1ccc(Cl)c2cccnc12 : 1
2. Cn1c(=O)c2c(ncn2CCC(=O)Nc2ccc(F)cc2)n(C)c1=O : -1
3. O=C(Nc1ccc(Cl)c([N+](=O)[O-])c1)Nc1nc2ccccc2s1 : -1
4. CCOC(=O)C1=C(N)Oc2c(sc3c(C)cccc23)C1c1ccc(F)cc1 (configuration not stated) : 1
5. CC(=O)Oc1ccc(OC(C)=O)c2ccccc12 : 1
6. CCCCCCCCCCCCCCCCCC(=O)NCCNC(=O)CCCCCCCCCCCCCCCCC : 1
7. O=C1C(Cl)=C(NCCCN(CCCNC2=C(Cl)C(=O)c3ccccc3C2=O)C2=C(Cl)C(=O)c3ccccc3C2=O)C(=O)c2ccccc21 : 1
8. S=C(Cc1ccc2c(c1)CCCC2)N1CCOCC1 : -1

query: Problem: For the compound CC1C(C)N(C(=O)CCl)c2ccccc2N1C(=O)CCl (configuration not stated) , is growth under 70%?
result: 1

query: Next record, please: CCc1nn(Cc2ccccc2)c2nc(C)c(CCc3ccccc3)c(Cl)c12
result: -1

query: Consider next the compound CC(C)n1nc(C#Cc2cccc(O)c2)c2c(N)ncnc21 in the same way.
result: 1

query: Another: CCCCCCSc1ncnc2nc[nH]c12
result: -1

query: How about O=C(c1cccs1)C1NO[N+]([O-])=C1c1cccs1 (configuration not stated) ?
result: 1
